Recorded values, source ChEMBL document CHEMBL1134928.

target: Histamine H2 receptor (Homo sapiens); assay: Binding affinity to the human Histamine H2 receptor
pKi: −log10 of the molar value.
Decide by pKi: equal to or exceeding 5 means condition met, less means condition not met.

Consider the following illustrative entries.
CCc1ccc(S(=O)(=O)N[C@H]2CCN(CCCOc3ccc(C(=O)C4CC4)cc3)C2)cc1: condition met
O=C(c1ccc(OCCCN2CC[C@H](NS(=O)(=O)c3cccc(F)c3)C2)cc1)C1CC1: condition met
CC(=O)c1ccc(OCCCN2CC[C@H](NC(=O)[C@H](C)NC(=O)OC(C)(C)C)C2)cc1: condition not met

Check if pKi >= 5 (inclusive). Item: CC(=O)c1ccc(OCCCN2CC[C@H](NC(=O)[C@@H](N)CO)C2)cc1
condition not met

Also check O=C(c1ccc(OCCCN2CC[C@H](NS(=O)(=O)c3ccccc3F)C2)cc1)C1CC1
condition met

Also check CC(=O)c1ccc(OCCCN2CC[C@H](NC(=O)[C@H](CO)NC(=O)OC(C)(C)C)C2)cc1
condition not met

====

target: Histamine H1 receptor (Homo sapiens, UniProt P35367); assay: Binding affinity to the human Histamine H1 receptor
Sequence (P35367 whole entry): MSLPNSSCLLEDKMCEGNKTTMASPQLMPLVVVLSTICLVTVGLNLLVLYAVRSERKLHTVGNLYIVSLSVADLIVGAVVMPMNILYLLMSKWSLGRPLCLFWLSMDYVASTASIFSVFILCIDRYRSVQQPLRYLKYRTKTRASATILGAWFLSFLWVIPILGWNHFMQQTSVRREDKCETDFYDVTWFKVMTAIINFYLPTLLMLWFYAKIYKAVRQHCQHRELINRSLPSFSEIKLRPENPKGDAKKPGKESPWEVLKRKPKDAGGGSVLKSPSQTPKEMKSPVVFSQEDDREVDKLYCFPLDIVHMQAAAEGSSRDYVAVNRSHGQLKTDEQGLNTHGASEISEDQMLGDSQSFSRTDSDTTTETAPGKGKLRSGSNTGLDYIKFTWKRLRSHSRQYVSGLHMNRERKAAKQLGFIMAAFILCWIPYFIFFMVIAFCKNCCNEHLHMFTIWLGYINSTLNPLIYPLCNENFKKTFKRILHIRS
experimental.readout: pKi
A value of pKi is the negative decimal logarithm of a concentration given in moles per litre.

Look over these answered cases.
O=C(c1ccc(OCCCN2CC[C@H](NS(=O)(=O)c3ccccc3F)C2)cc1)C1CC1: 5.03
N#Cc1cccc(S(=O)(=O)N[C@H]2CCN(CCCOc3ccc(C(=O)C4CC4)cc3)C2)c1: 5.05
CC(C)(C)c1ccc(S(=O)(=O)N[C@H]2CCN(CCCOc3ccc(C(=O)C4CC4)cc3)C2)cc1: 5.64
O=C(c1ccc(OCCCN2CC[C@H](NS(=O)(=O)c3cccc(F)c3)C2)cc1)C1CC1: 5.23
CC(=O)c1ccc(OCCCN2CC[C@H](NC(=O)[C@H](C)NC(=O)OC(C)(C)C)C2)cc1: 4.22

Now let's try a different one.
Please look up its pKi: Cc1ccc(S(=O)(=O)N[C@H]2CCN(CCCOc3ccc(C(=O)C4CC4)cc3)C2)cc1
5.26

====

biological target: Histamine H1 receptor (Homo sapiens, UniProt P35367); experiment: Binding affinity towards human Histamine H1 receptor (For compound 11)
experimental.readout: pKi
A value of pKi is the negative decimal logarithm of a concentration given in moles per litre.

Please look up its pKi: CC(=O)c1ccc(OCCCN2CC[C@H](N)C2)cc1
4.00

====

molecular target: Histamine H3 receptor (Rattus norvegicus); test: Binding affinity against rat histamine H3 receptor
pKi: −log10 of the molar value.
Decide by pKi: equal to or exceeding 7 means 1 (yes), less means 0 (no).

Consider the following illustrative entries.
O=C(c1ccc(OCCCN2CC[C@H](NS(=O)(=O)c3cccc(Cl)c3)C2)cc1)C1CC1: 1 (yes)
O=C(c1ccc(OCCCN2C[C@@H]3C[C@H]2CN3C(=O)c2ccccn2)cc1)C1CC1: 0 (no)
CC(=O)c1ccc(OCCCN2CC[C@H](NC(=O)[C@H](C)NC(=O)OC(C)(C)C)C2)cc1: 0 (no)
O=C(c1ccc(OCCCN2C[C@@H]3C[C@H]2CN3C(=O)c2ccco2)cc1)C1CC1: 0 (no)

Check if pKi >= 7 (inclusive). Item: O=C(c1ccc(OCCCN2CC[C@H](NS(=O)(=O)c3ccc(Cl)cc3)C2)cc1)C1CC1
1 (yes)

Also check CC(=O)c1ccc(OCCCN2CC[C@H](NC(=O)c3ccc(C#N)cc3)C2)cc1
1 (yes)

Also check O=C(c1ccc(OCCCN2C[C@@H]3C[C@H]2CN3C(=O)c2ccc(F)cc2)cc1)C1CC1
0 (no)

Also check Cc1ccc(S(=O)(=O)N[C@H]2CCN(CCCOc3ccc(C(=O)C4CC4)cc3)C2)cc1
1 (yes)

====

molecular target: Histamine H1 receptor (Homo sapiens); experiment: Binding affinity to the human Histamine H1 receptor
Label true (1) when Ki is strictly below 6 µM; otherwise label false (0).

N#Cc1ccccc1S(=O)(=O)N[C@H]1CCN(CCCOc2ccc(C(=O)C3CC3)cc2)C1: false (0)

Say whether its Ki is strictly beneath 6 µM. Entry: CCc1ccc(S(=O)(=O)N[C@H]2CCN(CCCOc3ccc(C(=O)C4CC4)cc3)C2)cc1
true (1)

Also check CC(=O)c1ccc(OCCCN2CC[C@H](NC(=O)[C@@H](N)CO)C2)cc1
false (0)

Also check COc1ccc(S(=O)(=O)N[C@H]2CCN(CCCOc3ccc(C(=O)C4CC4)cc3)C2)cc1
true (1)

Also check O=C(c1ccc(OCCCN2CC[C@H](NS(=O)(=O)c3ccc(Br)cc3)C2)cc1)C1CC1
true (1)

====

biological target: Histamine H3 receptor (Rattus norvegicus, UniProt Q9QYN8); test: Binding affinity towards rats Histamine type 3 (H3) receptor
Sequence (Q9QYN8 whole entry): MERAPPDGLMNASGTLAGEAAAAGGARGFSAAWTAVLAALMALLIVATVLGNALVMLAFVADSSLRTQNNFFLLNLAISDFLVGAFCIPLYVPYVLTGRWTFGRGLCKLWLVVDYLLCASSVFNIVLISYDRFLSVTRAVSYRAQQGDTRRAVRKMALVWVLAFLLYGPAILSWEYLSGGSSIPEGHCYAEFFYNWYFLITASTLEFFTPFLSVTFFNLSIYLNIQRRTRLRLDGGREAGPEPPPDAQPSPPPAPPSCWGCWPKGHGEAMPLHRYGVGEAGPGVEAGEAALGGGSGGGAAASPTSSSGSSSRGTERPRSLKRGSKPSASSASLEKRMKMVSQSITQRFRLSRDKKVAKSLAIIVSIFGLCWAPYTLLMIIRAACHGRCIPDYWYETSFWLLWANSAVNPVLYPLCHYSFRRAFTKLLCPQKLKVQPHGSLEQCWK
experimental.readout: pKi
A value of pKi is the negative decimal logarithm of a concentration given in moles per litre.

Fill in the recorded pKi for this compound, with Histamine H3 receptor (Rattus norvegicus, UniProt Q9QYN8) as test system: CCCCCC(=O)c1ccc(OCCCN2CCN(C(=O)OCC)CC2)cc1
8.70

====

target: UniProt Q9QYN8; test: Binding affinity against rat histamine H3 receptor
experimental.readout: log10 Ki (log10 of the value in nM)
Base-10 log of Ki, unit nM.

Look over these answered cases.
N#Cc1cccc(S(=O)(=O)N[C@H]2CCN(CCCOc3ccc(C(=O)C4CC4)cc3)C2)c1: 0.45
CCc1ccc(S(=O)(=O)N[C@H]2CCN(CCCOc3ccc(C(=O)C4CC4)cc3)C2)cc1: 0.66
Cc1ccccc1S(=O)(=O)N[C@H]1CCN(CCCOc2ccc(C(=O)C3CC3)cc2)C1: 1.04
CC(=O)c1ccc(OCCCN2CC[C@H](NC(=O)[C@@H](CO)NC(=O)OC(C)(C)C)C2)cc1: 2.49
COc1ccc(S(=O)(=O)N[C@H]2CCN(CCCOc3ccc(C(=O)C4CC4)cc3)C2)cc1: 0.46
O=C(c1ccc(OCCCN2CC[C@H](NS(=O)(=O)c3ccc(Br)cc3)C2)cc1)C1CC1: 0.70

Please look up its log10 Ki: C[C@H](NC(=O)N1C[C@@H]2C[C@H]1CN2CCCOc1ccc(C(=O)C2CC2)cc1)C(=O)O
2.37

Also check O=C(c1ccc(OCCCN2CC[C@H](NS(=O)(=O)c3ccccc3F)C2)cc1)C1CC1
0.43

Also check C[C@@H](NC(=O)N1C[C@@H]2C[C@H]1CN2CCCOc1ccc(C(=O)C2CC2)cc1)C(=O)O
2.62

Also check CC(C)(C)c1ccc(S(=O)(=O)N[C@H]2CCN(CCCOc3ccc(C(=O)C4CC4)cc3)C2)cc1
0.72

Also check O=C(c1ccc(OCCCN2C[C@@H]3C[C@H]2CN3S(=O)(=O)c2ccccc2)cc1)C1CC1
1.28

====

target: Histamine H2 receptor (Homo sapiens, UniProt P25021); assay: Binding affinity to the human Histamine H2 receptor
Sequence (P25021 whole entry): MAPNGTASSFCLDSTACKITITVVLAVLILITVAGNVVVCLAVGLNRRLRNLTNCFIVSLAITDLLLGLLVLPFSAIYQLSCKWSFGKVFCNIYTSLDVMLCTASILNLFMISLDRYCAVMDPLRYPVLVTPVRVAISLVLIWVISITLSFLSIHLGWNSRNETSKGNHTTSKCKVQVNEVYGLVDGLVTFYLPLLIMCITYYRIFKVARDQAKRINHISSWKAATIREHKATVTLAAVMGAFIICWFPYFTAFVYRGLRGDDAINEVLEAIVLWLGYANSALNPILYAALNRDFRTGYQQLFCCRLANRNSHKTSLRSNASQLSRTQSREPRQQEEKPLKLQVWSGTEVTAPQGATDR
experimental.readout: pKi
A value of pKi is the negative decimal logarithm of a concentration given in moles per litre.

CC(=O)c1ccc(OCCCN2CC[C@H](NC(=O)c3cccnc3)C2)cc1: 5.46
CC(=O)c1ccc(OCCCN2CC[C@H](NC(=O)c3ccc(C#N)cc3)C2)cc1: 5.21
O=C(c1ccc(OCCCN2CC[C@H](NS(=O)(=O)c3ccccc3)C2)cc1)C1CC1: 5.92

Please look up its pKi: CC(=O)c1ccc(OCCCN2CC[C@H](NC(=O)c3cnccn3)C2)cc1
5.30

Also check N#Cc1cccc(S(=O)(=O)N[C@H]2CCN(CCCOc3ccc(C(=O)C4CC4)cc3)C2)c1
6.05

Also check CC(=O)c1ccc(OCCCN2CC[C@H](NS(=O)(=O)c3ccc(C#N)cc3)C2)cc1
5.64

====

biological target: Histamine H2 receptor (Homo sapiens, UniProt P25021); experiment: Binding affinity to the human Histamine H2 receptor
This section presents molecules with their documented pKi values.
A value of pKi is the negative decimal logarithm of a concentration given in moles per litre.

Look over these answered cases.
CC(C)(C)c1ccc(S(=O)(=O)N[C@H]2CCN(CCCOc3ccc(C(=O)C4CC4)cc3)C2)cc1: 6.14
Cc1ccccc1S(=O)(=O)N[C@H]1CCN(CCCOc2ccc(C(=O)C3CC3)cc2)C1: 5.66
CC(=O)c1ccc(OCCCN2CC[C@H](N)C2)cc1: 4.30
N#Cc1ccccc1S(=O)(=O)N[C@H]1CCN(CCCOc2ccc(C(=O)C3CC3)cc2)C1: 6.15

Now let's try a different one.
Please look up its pKi: CC(=O)c1ccc(OCCCN2CC[C@H](NC(=O)c3csc(-c4cccnc4)n3)C2)cc1
5.21

====

target: Histamine H2 receptor (Homo sapiens, UniProt P25021); assay: Binding affinity towards human Histamine H2 receptor (For compound 11)
experimental.readout: Ki (µM)
Report as a plain number; the unit µM is understood.

Please look up its Ki: CC(=O)c1ccc(OCCCN2CC[C@H](N)C2)cc1
31
